test: Fluorescence intensity change of compound solution on addition of sodium sulfide (hydrogen sulfide donor) in phosphate-buffered saline; conditions: grade based on ΔF−ΔF0; A to C acceptable, D unacceptable
recorded-endpoint: Sensitivity

# compound, result-value
data = [
    ("COCCOCCOCCOCCNC(=S)Nc1ccc2c(c1)C(=O)OC21c2ccc(O)cc2Oc2cc(OC(=O)c3ccccc3/C=C(\\C#N)C(=O)OCCCNC(=O)c3ccc(/N=N/c4ccc(N(C)C)cc4)cc3)ccc21 (stereo not shown) [Compound 5]", "A (ΔF−ΔF0 is 40 or more)"),
    ("CN(C)c1ccc(/N=N/c2ccc(C(=O)NCCCOC(=O)/C(C#N)=C/c3ccccc3C(=O)Oc3ccc4c(c3)Oc3cc(O)ccc3C43OC(=O)c4ccccc43)cc2)cc1 (stereo not shown) [Compound 1]", "A (ΔF−ΔF0 is 40 or more)"),
]

These measurements were taken from patent US12049469B2.
